# METHOD_DESCRIPTION: MTT cell proliferation assay, fibroblasts
# Assay type: cell-based, human
# DETAILS: human, 10 μM, MTT, 72 h, read-out: fibroblast proliferation rate after 72 hours
Peptide text beside a SMILES is read from it.
// viability at 72 h, 10 µM lookup, one value per entry

MOLECULE	viability at 72 h, 10 µM
CCCCCCCCCCCCCCCC(=O)N[C@@H](Cc1ccc(O)cc1)C(=O)N[C@@H](CCCNC(=N)N)C(=O)N[C@@H](CO)C(=O)N[C@@H](CCCNC(=N)N)C(=O)N[C@@H](CCCCN)C(=O)N[C@H](Cc1ccc(O)cc1)C(=O)N[C@@H](CO)C(=O)N[C@@H](CO)C(=O)N[C@@H](Cc1c[nH]c2ccccc12)C(=O)N[C@@H](Cc1ccc(O)cc1)C(N)=O [P4B, Palmitoyl-YRSRK[*Y]SSWY-amide] (HELM PEPTIDE1{[CCCCCCCCCCCCCCCC(=O)[*:2]].Y.R.S.R.K.[dY].S.S.W.Y.[am]}$$$$V2.0)	99%
CCCCCCCCCCCCCCCC(=O)N[C@@H](Cc1ccc(O)cc1)C(=O)N[C@@H](CCCNC(=N)N)C(=O)N[C@@H](CO)C(=O)N[C@@H](CCCNC(=N)N)C(=O)N[C@@H](CCCCN)C(=O)N[C@@H](Cc1ccc(O)cc1)C(=O)N[C@@H](CO)C(=O)N[C@@H](CO)C(=O)N[C@@H](Cc1c[nH]c2ccccc12)C(=O)N[C@@H](Cc1ccc(O)cc1)C(N)=O [P4A, Palmitoyl-YRSRKYSSWY-amide] (HELM PEPTIDE1{[CCCCCCCCCCCCCCCC(=O)[*:2]].Y.R.S.R.K.Y.S.S.W.Y.[am]}$$$$V2.0)	99%

* * *

# METHOD_DESCRIPTION: Trypan blue cell viability, 7 days, fibroblasts
# Assay type: cell-based
# DETAILS: human, 30 μM, relative to control, read-out: fibroblast viability after 7 days
Ends that are not written are not given here.
EXPERIMENTAL_READOUT: viability at 168 h, 30 µM (%)

> print(dat)
                                  substance  assay.result
1  Ac-YRSRKYSSWY-NH2 [P4C, Acetyl-YRSRKYSSWY-amide]          98.3
2   YRSRKYSSWY [decapeptide-12, YRSRKYSSWY]          98.2

* * *

# METHOD_DESCRIPTION: MTT cell proliferation assay, fibroblasts
# Type: cell-based, human
# DETAILS: human, 30 μM, MTT, 72 h, read-out: fibroblast proliferation rate after 72 hours
Peptide text beside a SMILES is read from it.

COMPOUND	viability at 72 h, 30 µM [%]
CCCCCCCCCCCCCCCC(=O)N[C@@H](Cc1ccc(O)cc1)C(=O)N[C@@H](CCCNC(=N)N)C(=O)N[C@@H](CO)C(=O)N[C@@H](CCCNC(=N)N)C(=O)N[C@@H](CCCCN)C(=O)N[C@@H](Cc1ccc(O)cc1)C(=O)N[C@@H](CO)C(=O)N[C@@H](CO)C(=O)N[C@@H](Cc1c[nH]c2ccccc12)C(=O)N[C@@H](Cc1ccc(O)cc1)C(N)=O [P4A, Palmitoyl-YRSRKYSSWY-amide] (HELM PEPTIDE1{[CCCCCCCCCCCCCCCC(=O)[*:2]].Y.R.S.R.K.Y.S.S.W.Y.[am]}$$$$V2.0)	98
CCCCCCCCCCCCCCCC(=O)N[C@@H](Cc1ccc(O)cc1)C(=O)N[C@@H](CCCNC(=N)N)C(=O)N[C@@H](CO)C(=O)N[C@@H](CCCNC(=N)N)C(=O)N[C@@H](CCCCN)C(=O)N[C@H](Cc1ccc(O)cc1)C(=O)N[C@@H](CO)C(=O)N[C@@H](CO)C(=O)N[C@@H](Cc1c[nH]c2ccccc12)C(=O)N[C@@H](Cc1ccc(O)cc1)C(N)=O [P4B, Palmitoyl-YRSRK[*Y]SSWY-amide] (HELM PEPTIDE1{[CCCCCCCCCCCCCCCC(=O)[*:2]].Y.R.S.R.K.[dY].S.S.W.Y.[am]}$$$$V2.0)	99
